Overview of recorded FACS fluorescence for various binders
- System: T1, CLDN6 endogenously expressed by human cancer cell lines (ARK2, OVCA429) (human, UniProt P56747 1-220)
- T1 construct: Untagged endogenous protein; also called Endogenous CLDN6+
- T1 sequence: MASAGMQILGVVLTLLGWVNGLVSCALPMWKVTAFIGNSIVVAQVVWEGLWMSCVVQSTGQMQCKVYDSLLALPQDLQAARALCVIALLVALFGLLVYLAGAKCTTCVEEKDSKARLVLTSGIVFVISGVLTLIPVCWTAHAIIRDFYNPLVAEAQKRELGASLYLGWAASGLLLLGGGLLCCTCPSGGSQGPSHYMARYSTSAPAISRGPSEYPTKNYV
- Assay Info: FACS, 0.3 µg Ab, ARK2 cells
Reply briefly: the number, and no unit.

AB11-chim (antibody, V domains shown, 'chim' is the pre-humanized form (parental variable regions); also called pre-humanized (chimeric) form of AB11) VH: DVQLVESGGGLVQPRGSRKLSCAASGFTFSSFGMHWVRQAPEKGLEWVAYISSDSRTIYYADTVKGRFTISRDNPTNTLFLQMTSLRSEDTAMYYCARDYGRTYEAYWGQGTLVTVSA VL: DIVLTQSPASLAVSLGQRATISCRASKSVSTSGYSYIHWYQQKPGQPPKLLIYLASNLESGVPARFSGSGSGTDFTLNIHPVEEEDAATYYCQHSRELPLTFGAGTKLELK | 1320
AB1-6 (antibody, V domains shown, also called Humanized AB 1-6) VH: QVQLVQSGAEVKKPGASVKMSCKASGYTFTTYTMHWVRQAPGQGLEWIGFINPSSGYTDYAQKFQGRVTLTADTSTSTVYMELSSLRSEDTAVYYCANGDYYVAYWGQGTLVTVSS VL: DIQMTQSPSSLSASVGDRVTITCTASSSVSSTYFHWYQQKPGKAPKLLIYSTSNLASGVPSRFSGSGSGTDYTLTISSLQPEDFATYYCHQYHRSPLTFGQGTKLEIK | 2820

Let us move to another entry and its FACS fluorescence.
Requested field: FACS fluorescence. Item: AB4-6 (antibody, V domains shown, also called Humanized AB 4-6) VH: QVQLVQSGAEVKKPGASVKMSCKASGYTFTSYTMHWIRQAPGQGLEWIGYINPSSTYTHYAQKFQGRATLTADKSTSTAYMELSSLRSEDTAVYYCSRGELGGFAYWGQGTLVTVSS VL: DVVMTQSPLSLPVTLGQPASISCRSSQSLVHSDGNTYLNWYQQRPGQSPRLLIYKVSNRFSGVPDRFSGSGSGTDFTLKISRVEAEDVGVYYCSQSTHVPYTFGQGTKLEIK 3300
